# Tested on: Enterobacter
# EXPERIMENT_NOTES: In vitro antibacterial activity against Enterobacter relative to thienamycin
# Type: functional
REPORTED_PROPERTY: Relative potency

[[record]]
chemical_structure = "C[C@@H](O)[C@H]1C(=O)N2C(C(=O)[O-])=C(c3ccc(C[n+]4cccc5ccccc54)cc3)C[C@H]12"
val = 8.6

[[record]]
chemical_structure = "Cc1cc[n+](Cc2ccc(C3=C(C(=O)[O-])N4C(=O)[C@H]([C@@H](C)O)[C@H]4C3)cc2)cc1"
val = 9.2

[[record]]
chemical_structure = "C[C@@H](O)[C@H]1C(=O)N2C(C(=O)O)=C(SCCNC=N)C[C@H]12.O"
val = 1.8

[[record]]
chemical_structure = "C[C@@H](O)[C@H]1C(=O)N2C(C(=O)[O-])=C(c3ccc(C[n+]4cccc(C(=O)N(C)C)c4)cc3)C[C@H]12"
val = 3.5

[[record]]
chemical_structure = "C[C@@H](O)[C@H]1C(=O)N2C(C(=O)O)=C(c3ccc(CN4CCCCC4)cc3)C[C@H]12"
val = 4

[[record]]
chemical_structure = "C[C@@H](O)[C@H]1C(=O)N2C(C(=O)[O-])=C(c3ccc(C[n+]4cccc(C(=O)[O-])c4)cc3)C[C@H]12.[K+]"
val = 12.1

[[record]]
chemical_structure = "C[C@@H](O)[C@H]1C(=O)N2C(C(=O)[O-])=C(c3ccc(C[n+]4ccc(N5CCCC5)cc4)cc3)C[C@H]12"
val = 3


* * *

# Test system: Staphylococcus aureus
# EXPERIMENT_NOTES: In vitro antibacterial activity against Staphylococcus aureus (4) relative to Thienamycin (1)
# Format: functional
REPORTED_PROPERTY: Relative potency

[[record]]
compound = "CSCc1ccc[n+](Cc2ccc(C3=C(C(=O)[O-])N4C(=O)[C@H]([C@@H](C)O)[C@H]4C3)cc2)c1"
experimental_system = "Staphylococcus aureus"
val = 1.9

[[record]]
compound = "CO[C@@]1(NC(=O)Cc2cccs2)C(=O)N2C(C(=O)O)=C(COC(N)=O)CS[C@@H]21 [CEFOXITIN]"
experimental_system = "Staphylococcus aureus"
val = 0.03

[[record]]
compound = "C[C@@H](O)[C@H]1C(=O)N2C(C(=O)O)=C(SCCNC=N)C[C@H]12.O [IMIPENEM]"
experimental_system = "Staphylococcus aureus"
val = 1.8

[[record]]
compound = "C[C@@H](O)[C@H]1C(=O)N2C(C(=O)[O-])=C(c3ccc(C[n+]4ccc(CN)cc4)cc3)C[C@H]12"
experimental_system = "Staphylococcus aureus"
val = 0.5

[[record]]
compound = "C[C@@H](O)[C@H]1C(=O)N2C(C(=O)[O-])=C(c3ccc(C[n+]4cccc(CSCCC#N)c4)cc3)C[C@H]12"
experimental_system = "Staphylococcus aureus"
val = 1

[[record]]
compound = "C[C@@H](O)[C@H]1C(=O)N2C(C(=O)[O-])=C(c3ccc(C[n+]4ccc(CCS(=O)(=O)[O-])cc4)cc3)C[C@H]12.[K+]"
experimental_system = "Staphylococcus aureus"
val = 0.4

[[record]]
compound = "C[C@@H](O)[C@H]1C(=O)N2C(C(=O)[O-])=C(c3ccc(C[n+]4cccc(C(=O)N(C)C)c4)cc3)C[C@H]12"
experimental_system = "Staphylococcus aureus"
val = 0.3

[[record]]
compound = "CSc1ccc[n+](Cc2ccc(C3=C(C(=O)[O-])N4C(=O)[C@H]([C@@H](C)O)[C@H]4C3)cc2)c1"
experimental_system = "Staphylococcus aureus"
val = 2.6

[[record]]
compound = "C[C@@H](O)[C@H]1C(=O)N2C(C(=O)[O-])=C(c3ccc(C[n+]4ccc(CS(=O)(=O)[O-])cc4)cc3)C[C@H]12.[K+]"
experimental_system = "Staphylococcus aureus"
val = 0.5

[[record]]
compound = "C[C@@H](O)[C@H]1C(=O)N2C(C(=O)[O-])=C(c3ccc(C[n+]4cccc(C(=O)[O-])c4)cc3)C[C@H]12.[K+]"
experimental_system = "Staphylococcus aureus"
val = 0.6

[[record]]
compound = "Cc1cc[n+](Cc2ccc(C3=C(C(=O)[O-])N4C(=O)[C@H]([C@@H](C)O)[C@H]4C3)cc2)cc1"
experimental_system = "Staphylococcus aureus"
val = 1.1

